IC50 data for CRAF (Homo sapiens, UniProt P04049) follow.
Property: IC50 (nM)

Here are 8 compounds together with their reported answers.
{"columns": ["Compound", "Test system", "Property", "U", "Val"],
 "data": [
  ["Cc1cn(-c2cc(C(=O)Nc3cccc(-c4cc(C(=O)OCCN5CCOCC5)[nH]n4)c3)cc(C(F)(F)F)c2)cn1 [Compound 23c]", "CRAF (Homo sapiens, UniProt P04049)", "IC50", "nM", 60],
  ["Cc1cn(-c2cc(C(=O)Nc3cccc(-c4cc(C(=O)NCCN5CCOCC5)[nH]n4)c3)cc(C(F)(F)F)c2)cn1 [Compound 20c]", "CRAF (Homo sapiens, UniProt P04049)", "IC50", "nM", 580],
  ["Cc1cn(-c2cc(C(=O)Nc3cccc(-c4cc(C(=O)NCCN5CCNCC5)[nH]n4)c3)cc(C(F)(F)F)c2)cn1 [Compound 22c]", "CRAF (Homo sapiens, UniProt P04049)", "IC50", "nM", 580],
  ["CN1CCN(c2cc(C(=O)Nc3cccc(-c4cc(C(=O)OCCN5CCOCC5)[nH]n4)c3)cc(C(F)(F)F)c2)CC1 [Compound 23d]", "CRAF (Homo sapiens, UniProt P04049)", "IC50", "nM", 160],
  ["O=C(Nc1cccc(-c2cc(C(=O)OCCN3CCCCC3)[nH]n2)c1)c1cc(N2CCOCC2)cc(C(F)(F)F)c1", "CRAF (Homo sapiens, UniProt P04049)", "IC50", "nM", 210],
  ["CN1CCN(c2cc(C(=O)Nc3cccc(-c4cc(C(=O)NCCN5CCOCC5)[nH]n4)c3)cc(C(F)(F)F)c2)CC1 [Compound 20d]", "CRAF (Homo sapiens, UniProt P04049)", "IC50", "nM", 1150],
  ["O=C(Nc1cccc(-c2cc(C(=O)NCCN3CCOCC3)[nH]n2)c1)c1cc(N2CCOCC2)cc(C(F)(F)F)c1 [Compound 20a]", "CRAF (Homo sapiens, UniProt P04049)", "IC50", "nM", 1500],
  ["Cc1nccn1-c1cc(C(=O)Nc2cccc(-c3cc(C(=O)OCCN4CCOCC4)[nH]n3)c2)cc(C(F)(F)F)c1 [Compound 23b]", "CRAF (Homo sapiens, UniProt P04049)", "IC50", "nM", 20]
]}

(I) Cc1nccn1-c1cc(C(=O)Nc2cccc(-c3cc(C(=O)NCCN4CCNCC4)[nH]n3)c2)cc(C(F)(F)F)c1 [Compound 22b]
(II) O=C(Nc1cccc(-c2cc(C(=O)OCCN3CCOCC3)[nH]n2)c1)c1cc(N2CCOCC2)cc(C(F)(F)F)c1 [Compound 23a]
Decide: I or II , by lowest recorded IC50. Your answer should be the label of the entry you select.
II

(P) O=C(Nc1cccc(-c2cc(C(=O)NCCN3CCNCC3)[nH]n2)c1)c1cc(N2CCOCC2)cc(C(F)(F)F)c1 [Compound 22a]
(Q) Cc1nccn1-c1cc(C(=O)Nc2cccc(-c3cc(C(=O)NCCN4CCOCC4)[nH]n3)c2)cc(C(F)(F)F)c1 [Compound 20b]
Quick check, higher IC50 between P and Q ? Your answer should be the label of the entry you select.
P
(P: 1600 nM, Q: 590 nM)

All values here come from paper PMC6691785.
